Target: NTCP (Homo sapiens)
Sequence (Q14973 1-349): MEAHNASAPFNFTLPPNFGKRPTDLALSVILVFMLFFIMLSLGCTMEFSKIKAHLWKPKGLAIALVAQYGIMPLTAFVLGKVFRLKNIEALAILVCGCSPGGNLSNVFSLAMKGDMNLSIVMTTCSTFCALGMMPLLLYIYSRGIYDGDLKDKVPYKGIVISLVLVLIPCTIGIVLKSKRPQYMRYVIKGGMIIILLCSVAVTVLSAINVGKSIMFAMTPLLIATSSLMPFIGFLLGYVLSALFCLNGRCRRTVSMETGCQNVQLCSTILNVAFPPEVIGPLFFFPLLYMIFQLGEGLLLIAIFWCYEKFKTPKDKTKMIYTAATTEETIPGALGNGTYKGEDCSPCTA
Experiment: [3H]-TCA uptake assay (NTCP inhibition)
Assay type: cell-based
Conditions: given as a range, marked * (asterisk not explained)
pIC50: −log10 of the molar value.
Below, each entry is listed with its recorded pIC50.

{"columns": ["COMPOUND", "MEASURED TARGET", "PARAMETER", "RECORDED VALUE"],
 "data": [
  ["CCC1NC(=O)C(C2OC(Oc3cc(OC)cc(OCc4ccccc4)c3)CC2C)N(C)C(=O)C(C(C)C)N(C)C(=O)C(CC(C)C)N(C)C(=O)C(CC(C)C)N(C)C(=O)C(C)NC(=O)C(C)NC(=O)C(CC(C)C)N(C)C(=O)C(C(C)C)NC(=O)C(CC(C)C)N(C)C(=O)CN(C)C1=O (stereo not shown)", "NTCP (Homo sapiens)", "pIC50", "4.00 to 6.00"],
  ["CCC1NC(=O)C(C2OC(Sc3cc(Cl)cc(OCC4CCN(C)CC4)c3)CC2C)N(C)C(=O)C(C(C)C)N(C)C(=O)C(CC(C)C)N(C)C(=O)C(CC(C)C)N(C)C(=O)C(C)NC(=O)C(C)NC(=O)C(CC(C)C)N(C)C(=O)C(C(C)C)NC(=O)C(CC(C)C)N(C)C(=O)CN(C)C1=O (stereo not shown)", "NTCP (Homo sapiens)", "pIC50", "4.00 to 6.00"],
  ["CCC1NC(=O)C(C2OC(Oc3cc(OCCOC)cc(OCc4ccccc4)c3)CC2C)N(C)C(=O)C(C(C)C)N(C)C(=O)C(CC(C)C)N(C)C(=O)C(CC(C)C)N(C)C(=O)C(C)NC(=O)C(C)NC(=O)C(CC(C)C)N(C)C(=O)C(C(C)C)NC(=O)C(CC(C)C)N(C)C(=O)CN(C)C1=O (stereo not shown)", "NTCP (Homo sapiens)", "pIC50", "4.00 to 6.00"]
]}

Now look at this entry.
Problem: Quick one: pIC50 of CCC1NC(=O)C(C2OC(Oc3cc(OC)cc(OCC4CCOCC4)c3)CC2C)N(C)C(=O)C(C(C)C)N(C)C(=O)C(CC(C)C)N(C)C(=O)C(CC(C)C)N(C)C(=O)C(C)NC(=O)C(C)NC(=O)C(CC(C)C)N(C)C(=O)C(C(C)C)NC(=O)C(CC(C)C)N(C)C(=O)CN(C)C1=O (stereo not shown) ?
Solution: 4.00 to 6.00

----------
Biological target: NTCP (Homo sapiens, UniProt Q14973)
Sequence (Q14973 1-349): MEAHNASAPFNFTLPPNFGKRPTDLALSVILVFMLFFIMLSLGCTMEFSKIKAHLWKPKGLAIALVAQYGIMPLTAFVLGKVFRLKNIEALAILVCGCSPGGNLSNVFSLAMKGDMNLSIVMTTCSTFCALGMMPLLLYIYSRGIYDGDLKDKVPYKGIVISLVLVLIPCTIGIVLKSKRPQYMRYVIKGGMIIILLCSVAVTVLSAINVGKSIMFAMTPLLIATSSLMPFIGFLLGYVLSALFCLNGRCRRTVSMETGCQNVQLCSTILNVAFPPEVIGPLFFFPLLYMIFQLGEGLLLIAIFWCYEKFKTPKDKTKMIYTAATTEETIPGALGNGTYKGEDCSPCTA
Assay: [3H]-TCA uptake assay (NTCP inhibition)
Assay type: cell-based
Settings: IC50, given as a range; assay not given
pIC50: −log10 of the molar value.
Measured pIC50, listed per entry for reference.

{"columns": ["MOLECULE", "MEASURED TARGET", "pIC50"],
 "data": [
  ["CCC1NC(=O)C(C2OC(OCc3ccc(N4CCOCC4)cc3)CC2C)N(C)C(=O)C(C(C)C)N(C)C(=O)C(CC(C)C)N(C)C(=O)C(CC(C)C)N(C)C(=O)C(C)NC(=O)C(C)NC(=O)C(CC(C)C)N(C)C(=O)C(C(C)C)NC(=O)C(CC(C)C)N(C)C(=O)CN(C)C1=O (stereo not shown) [Compound 99A]", "NTCP (Homo sapiens, UniProt Q14973)", "5.00 to 6.00"],
  ["CCC1NC(=O)C(C2OC(Sc3cccc(OCCC4CCCN4C)c3)CC2C)N(C)C(=O)C(C(C)C)N(C)C(=O)C(CC(C)C)N(C)C(=O)C(CC(C)C)N(C)C(=O)C(C)NC(=O)C(C)NC(=O)C(CC(C)C)N(C)C(=O)C(C(C)C)NC(=O)C(CC(C)C)N(C)C(=O)CN(C)C1=O (stereo not shown) [Compound 15A]", "NTCP (Homo sapiens, UniProt Q14973)", "5.00 to 6.00"],
  ["CCC1NC(=O)C(C2OC(Sc3ccc(NC(C)=O)cc3)CC2C)N(C)C(=O)C(C(C)C)N(C)C(=O)C(CC(C)C)N(C)C(=O)C(CC(C)C)N(C)C(=O)C(C)NC(=O)C(C)NC(=O)C(CC(C)C)N(C)C(=O)C(C(C)C)NC(=O)C(CC(C)C)N(C)C(=O)CN(C)C1=O (stereo not shown)", "NTCP (Homo sapiens, UniProt Q14973)", "5.00 to 6.00"],
  ["CCC1NC(=O)C(C2OC(Sc3ccc(OS(C)(=O)=O)cc3)CC2C)N(C)C(=O)C(C(C)C)N(C)C(=O)C(CC(C)C)N(C)C(=O)C(CC(C)C)N(C)C(=O)C(C)NC(=O)C(C)NC(=O)C(CC(C)C)N(C)C(=O)C(C(C)C)NC(=O)C(CC(C)C)N(C)C(=O)CN(C)C1=O (stereo not shown)", "NTCP (Homo sapiens, UniProt Q14973)", "5.00 to 6.00"],
  ["CCC1NC(=O)C(C2OC(SCc3cccc(Cl)c3)CC2C)N(C)C(=O)C(C(C)C)N(C)C(=O)C(CC(C)C)N(C)C(=O)C(CC(C)C)N(C)C(=O)C(C)NC(=O)C(C)NC(=O)C(CC(C)C)N(C)C(=O)C(C(C)C)NC(=O)C(CC(C)C)N(C)C(=O)CN(C)C1=O (stereo not shown) [Compound 85A-s]", "NTCP (Homo sapiens, UniProt Q14973)", "4.00 to 6.00"]
]}

Problem: Given the entry CCC1NC(=O)C(C2OC(SCc3ccc(Cl)cc3)CC2C)N(C)C(=O)C(C(C)C)N(C)C(=O)C(CC(C)C)N(C)C(=O)C(CC(C)C)N(C)C(=O)C(C)NC(=O)C(C)NC(=O)C(CC(C)C)N(C)C(=O)C(C(C)C)NC(=O)C(CC(C)C)N(C)C(=O)CN(C)C1=O (stereo not shown) [Compound 86A-s] , what pIC50 was observed with NTCP (Homo sapiens, UniProt Q14973)?
Solution: 4.00 to 6.00

Problem: Another molecule to look at: CCC1NC(=O)C(C2OC(OCc3ccc(-n4cccn4)cc3)CC2C)N(C)C(=O)C(C(C)C)N(C)C(=O)C(CC(C)C)N(C)C(=O)C(CC(C)C)N(C)C(=O)C(C)NC(=O)C(C)NC(=O)C(CC(C)C)N(C)C(=O)C(C(C)C)NC(=O)C(CC(C)C)N(C)C(=O)CN(C)C1=O (stereo not shown) [Compound 77A]
Solution: 5.00 to 6.00
